assay overview: protein stability index of a GFP-peptide fusion (yeast GPS) (PSI 1-4); higher = more stable; sorted into four equal gates, so the index is relative within each strain
protocol conditions: san1∆
Use met when the recorded protein stability index is no lower than 3; use not met when it is lower.

Inquiry: Dear colleague, could you confirm whether NEETFTVPELEIPTQIY [ARP9] has protein stability index at or above 3?
Reply text: not met

====

assay overview: protein stability index of a GFP-peptide fusion (yeast GPS) (PSI 1-4); higher = more stable; sorted into four equal gates, so the index is relative within each strain
protocol conditions: ubr1∆
Record form. Attribute: protein stability index. Fill in for each entry.
Numbers only.

>>> reading("SNEICDLAYQYVRALEL [SRB2]")
3.08
>>> reading("AKRNLDANPSSQIIARN [SMC2]")
2.92
>>> reading("EEIVSNSSRFSDPMLQR [YCS4]")
3.07

Next sequence, protein stability index to be filled in.
Inquiry: Which protein stability index is listed for DTFGEGIIITDQSNVQY [BRR2] ?
Reply text: 2.94

====

assay overview: protein stability index of a GFP-peptide fusion (yeast GPS) (PSI 1-4); higher = more stable; sorted into four equal gates, so the index is relative within each strain
protocol conditions: doa10∆
Hi there, I'd appreciate the recorded protein stability index for every entry that follows.
Answers are plain numbers.

>>> reading("TQIVAKFPETSYPILNE [SIN4]")
2.92
>>> reading("NHPELQGITRNVVNYLS [RPC17]")
2.02
>>> reading("LIKFVDLSRNGRNGSNG [NUT1]")
3.08

Provide the reported protein stability index of each entry below, same order.
1. NTEITQKSSKENIENEE [ECM29]
2. LEILIVTKDGVRKEFYE [PRE7]
3. KVQISKIPILAQHESFL [RPN9]
4. NENNNNSSEKNNNNNNN [MED2]
5. QRDRHTLAYDRGHRIRR [PRP8]

Reply text:
1. 3.05
2. 2.91
3. 1.97
4. 2.91
5. 3.01

====

Answer each item with its documented protein stability index.
assay overview: protein stability index of a GFP-peptide fusion (yeast GPS) (PSI 1-4); higher = more stable; sorted into four equal gates, so the index is relative within each strain
protocol conditions: doa10∆

>>> reading("EKAIPKDQRATTPYMTK [RPO26]")
2.85

Lab note: each sequence below needs its protein stability index filled in.
1. KYKLISRIVEIFALCIY [YML103C/NUP188]
2. LHQHVVLKCLKSLESQR [RPC34]

Reply text:
[1.58, 2.77]

// batch mode: one protein stability index value per listed entry
1. DFIKFDQIAVCEISGSI [BRN1]
2. ISTPIINAVLVNDNDER [RPO31]
3. VFLFDIEKVDRENMICK [RRI2]
4. SYANHLEESDVEDTLHV [YOR098C/NUP1]
5. RAKAMKFADGFLIHSGQ [RPS3]
6. RLRKRVTIIPLDKIYTR [SMC2]
7. KFANQLHDEYLVSMRYP [RPN3]
8. YLIDHIKVDGAVGNLGN [RPL22B]

Reply text:
2.32
2.25
3.17
2.98
3.4
2
2.35
2.41

Below are 3 sequences. Give each one its protein stability index.
1. DTFYMNVESVGSIPVDQ [RPB3]
2. YMFANLEFSIYHRLSNK [CSN12]
3. ILTSLMRSKLEKLTLVT [CSN9]

Reply text:
2.9
2.13
2.42

For every item below, please supply its protein stability index.
1. REDTPLSQNESTRASTV [ISW2]
2. PTLAGMAQRTLKNKYES [FAS2]
3. LSSLILKIFQEQSLEVF [SRB8]
4. SLNYKFTTNKSKDVSRL [SRP21]

Reply text:
1. 2.96
2. 2.76
3. 2.5
4. 3.13

====

assay overview: protein stability index of a GFP-peptide fusion (yeast GPS) (PSI 1-4); higher = more stable; sorted into four equal gates, so the index is relative within each strain
protocol conditions: pdr5∆
Exercise: for every item that follows, state its recorded protein stability index.
One number for each entry.

>>> reading("TTFRNEYGKHDFKNEES [MED8]")
3.01
>>> reading("LESDFVTGASQFQRLAP [PRE2]")
2.97

Inquiry: Quick check: protein stability index of NLLVLRGKNEIIQNAQR [RPO21] ?
Reply text: 1.41

====

assay overview: protein stability index of a GFP-peptide fusion (yeast GPS) (PSI 1-4); higher = more stable; sorted into four equal gates, so the index is relative within each strain
protocol conditions: san1∆
endpoint name: protein stability index
Answers are plain numbers.

// known answers, use as guide
>>> reading("DLINILEKKGFSEVYEY [LIN1]")
3.3
>>> reading("ERSELLRLFNAPDSEYL [SNF2]")
2.87
>>> reading("NINNSSVAEKEEIRSQI [SWI3]")
2.2
>>> reading("SIPNLFPTDLEIFQLFT [SWI1]")
2.27
>>> reading("TTVPFKESDDPSIPLVI [POP1]")
2.87

Batch of 2 sequences: report protein stability index for each.
1. PLNKPLLTEELAKSGST [TAF14]
2. NMNNGGKELDSLDLNNL [PGD1]

Reply text:
1: 2.94; 2: 3.06

Inquiry: protein stability index lookup needed for VSLVAEATSNTNSEDKL [MED4] , thanks.
Reply text: 2.84

====

Provide the recorded protein stability index for the entries that follow.
assay overview: protein stability index of a GFP-peptide fusion (yeast GPS) (PSI 1-4); higher = more stable; sorted into four equal gates, so the index is relative within each strain
protocol conditions: san1∆
Give bare numbers.

>>> reading("SEDHSFRKIKLRVDEVQ [RPS1A]")
3.1
>>> reading("RENIAMLKRFFPGVKGL [SMC1]")
2.01

Please report protein stability index for every entry that follows.
1. EEDYNEFNSIDRVIFRV [PRP8]
2. YNHNDGGDGRDYKGAKL [RRI1]

Reply text:
1: 3.02; 2: 3.14

Return reported protein stability index values for all items listed beneath this line.
1. ISNLTQEQVQDYVNKTN [FAS1]
2. QNFENDFSLRYISNLLY [REC8]
3. AKETHTKPSETPATIVK [YOR098C/NUP1]

Reply text:
2.82
2.02
2.87

I have 4 sequences here; please give me protein stability index for each one.
1. EGVEYSFLHVDDKLAYI [POP8]
2. AFEAELSNIPLLLITHH [ARP9]
3. SNPSGNYTGWKAISVGA [PRE9]
4. PGHVNFMDETAVALAAS [SNU114]

Reply text:
[1.86, 1.64, 2.54, 2.29]

Provide each entry's protein stability index from the list below.
1. MMVSYPKIDEDDTWYNL [AAR2]
2. NLLVLRGKNEIIQNAQR [RPO21]
3. IEELDNPMVPSSVNEDT [PRP8]
4. KEEFSSAENRDEKDYLT [CSE2]

Reply text:
1. 3.25
2. 1.69
3. 3.33
4. 2.65

====

assay overview: protein stability index of a GFP-peptide fusion (yeast GPS) (PSI 1-4); higher = more stable; sorted into four equal gates, so the index is relative within each strain
protocol conditions: ubr1∆
Consider the following sequences; for each one, report its protein stability index.
Give bare numbers.

# count of solved cases: 3
>>> reading("DEEMTISQKLHDSILHS [RRP43]")
2.92
>>> reading("LKLCLGDHSSVPVALKG [YMR129W/POM152]")
3
>>> reading("AEQEKAKNIISNVLDGN [LRP1]")
2.98

Could you report protein stability index for every entry in the following list?
1. TAKRKSRKRKPKSASNT [IRR1]
2. SVRGAIVGPDLAVLALV [RPS6A]
3. ERLAKVNEMNDQLAQEL [NNF1]

Reply text:
1. 3.08
2. 1.38
3. 2.85

Below are 5 sequences. Give each one its protein stability index.
1. DLKSKADKLADMANEII [RRP6]
2. DTRSTQGPIVADKNCAK [PUP1]
3. SPLDIYSDEASAQKKRF [RPS2]
4. LTGSPNNPLVQKKNFLF [ARP7]
5. FVDENTFQRVCQYMVAC [RPN1]

Reply text:
[3.16, 3.04, 3.03, 3.18, 2.99]

====

assay overview: protein stability index of a GFP-peptide fusion (yeast GPS) (PSI 1-4); higher = more stable; sorted into four equal gates, so the index is relative within each strain
protocol conditions: san1∆
I'd appreciate it if you could supply protein stability index values for the items below.
Answers are plain numbers.

Look over these answered cases.
>>> reading("VSAAEDESLIRELYKYV [PRP28]")
2.95
>>> reading("PKFFLGEENRVRFIGDS [QCR2]")
3.07
>>> reading("AEASFTFGTKHAADSQN [YLR335W/NUP2]")
3.03

Inquiry: Can you share its protein stability index? I mean this sequence: NNTNTDNVSGLTRNAPL [SNF2]
Reply text: 3.05
